# TARGET_UNDER_TEST: HA of A/Hong Kong/8/68 (H3N2) virus (influenza A virus)
# ASSAY_METHOD_TEXT: cell-based or functional assay

| BINDER | Neutralization IC50, H3-HK68 [µg/mL] |
| --- | --- |
| Antibody 13 (antibody, V domains shown) VH: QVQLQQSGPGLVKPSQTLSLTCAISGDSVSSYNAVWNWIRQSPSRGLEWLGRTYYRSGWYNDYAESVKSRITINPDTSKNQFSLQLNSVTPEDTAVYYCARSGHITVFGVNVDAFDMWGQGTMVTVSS VL: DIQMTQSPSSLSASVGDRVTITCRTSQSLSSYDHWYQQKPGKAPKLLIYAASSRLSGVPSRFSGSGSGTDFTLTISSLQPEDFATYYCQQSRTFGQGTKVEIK | 0.44 |
